Assay Name: Metabolic stability in human liver microsomes
Format: in vitro ADME
Test Context: human liver microsomes 0.5 mg protein/mL, test compound 1 μM, 37° C.; read-out: T1/2 in HLM
I'd be grateful if you could share measured half-life at 1 μM for these entries.

// field: half-life at 1 μM; key: [2H]C([2H])([2H])n1c(=O)cc2c3cc(ccc31)[C@@](N)(c1cncn1C)c1ccc(C#N)c(c1)CCc1cccc-2c1 [(R)-8] ; value = < 30 min

// field: half-life at 1 μM; key: Cn1cncc1[C@@]1(N)c2ccc(C#N)c(c2)OCCc2cccc(c2)-c2cc(=O)n(C)c3ccc1cc23 [(S)-37] ; value = < 30 min

// field: half-life at 1 μM; key: Cn1cncc1[C@@]1(O)c2ccc(Cl)c(c2)OCc2cccc(c2)-c2cc(=O)n(C)c3ccc1cc23 [(S)-14] ; value = 30 to 100 min

// field: half-life at 1 μM; key: Cn1cncc1[C@@]1(N)c2ccc(Cl)c(c2)OCCc2cccc(c2)-c2cc(=O)n(C)c3ccc1cc23 [(S)-27] ; value = < 30 min

// field: half-life at 1 μM; key: Cn1cncc1[C@@]1(N)c2ccc(Cl)c(c2)OCCc2cccc(c2)-c2cc(=O)n(C3CC3)c3ccc1cc23 [(S)-30] ; value = < 30 min

// field: half-life at 1 μM; key: Cn1cncc1C1(O)c2ccc(Cl)c(c2)COc2cccc(c2)-c2cc(=O)n(C)c3ccc1cc23 (stereo not drawn) ; value = > 100 min

// field: half-life at 1 μM; key: Cn1cncc1[C@@]1(N)c2ccc(C#N)c(c2)COc2cccc(c2)-c2cc(C#N)nc3ccc1cc23 [(S)-58] ; value = > 100 min

// field: half-life at 1 μM; key: [2H]C([2H])([2H])n1c(=O)cc2c3cc(ccc31)[C@@](N)(c1cncn1C)c1ccc(C#N)c(c1)COc1cccc-2c1 [(S)-56] ; value = > 100 min

// field: half-life at 1 μM; key: Cn1cncc1[C@@]1(O)c2ccc(C#N)c(c2)CCc2cccc(c2)-c2cc(=O)n(C)c3ccc1cc23 [(R)-6] ; value = < 30 min

// field: half-life at 1 μM; key: Cn1cncc1[C@@]1(N)c2ccc(Cl)c(c2)COc2cccc(c2)-c2cc(=O)n(C)c3ccc1cc23 [(S)-46] ; value = > 100 min

// field: half-life at 1 μM; key: [2H]C([2H])([2H])n1c(=O)cc2c3cc(ccc31)[C@@](N)(c1nncn1C)c1ccc(Cl)c(c1)OCCc1cccc-2c1 [(S)-34] ; value = < 30 min

// field: half-life at 1 μM; key: Cn1cncc1[C@@]1(O)c2ccc(C#N)c(c2)OCc2cccc(c2)-c2cc(=O)n(C)c3ccc1cc23 [(S)-18] ; value = 30 to 100 min

// field: half-life at 1 μM; key: Cn1cncc1[C@@]1(O)c2ccc(C#N)c(c2)OCCc2cccc(c2)-c2cc(=O)n(C)c3ccc1cc23 [(S)-36] ; value = < 30 min

// field: half-life at 1 μM; key: Cn1cnnc1[C@@]1(N)c2ccc(Cl)c(c2)COc2cccc(c2)-c2cc(=O)n(C)c3ccc1cc23 [(S)-51] ; value = > 100 min

// field: half-life at 1 μM; key: [2H]C([2H])([2H])n1c(=O)cc2c3cc(ccc31)[C@@](N)(c1cncn1C)c1ccc(Cl)c(c1)COc1cccc-2c1 [(S)-47] ; value = > 100 min

// field: half-life at 1 μM; key: [2H]C([2H])([2H])n1c(=O)cc2c3cc(ccc31)[C@@](O)(c1cncn1C)c1ccc(Cl)c(c1)OCCc1cccc-2c1 [(S)-28] ; value = < 30 min

// field: half-life at 1 μM; key: Cn1cncc1[C@@]1(N)c2ccc(Cl)c(c2)OCc2cccc(c2)-c2cc(=O)n(C)c3ccc1cc23 [(S)-15] ; value = 30 to 100 min

// field: half-life at 1 μM; key: Cn1cncc1[C@@]1(O)c2ccc(Cl)c(c2)CCc2cccc(c2)-c2cc(=O)n(C)c3ccc1cc23 [(S)-3] ; value = < 30 min

// field: half-life at 1 μM; key: Cn1cncc1[C@@]1(O)c2ccc(Cl)c(c2)OCCc2cccc(c2)-c2cc(=O)n(C3CC3)c3ccc1cc23 [(S)-29] ; value = < 30 min

// field: half-life at 1 μM; key: Cn1cnnc1[C@@]1(N)c2ccc(Cl)c(c2)OCCc2cccc(c2)-c2cc(=O)n(C3CC3)c3ccc1cc23 [(S)-35] ; value = < 30 min

// field: half-life at 1 μM; key: Cn1cncc1[C@@]1(N)c2ccc(C#N)c(c2)CCc2cccc(c2)-c2cc(=O)n(C)c3ccc1cc23 [(R)-7] ; value = < 30 min

// field: half-life at 1 μM; key: Cn1cncc1[C@@]1(N)c2ccc(Cl)c(c2)CCc2cccc(c2)-c2cc(=O)n(C)c3ccc1cc23 [(S)-4] ; value = < 30 min

// field: half-life at 1 μM; key: Cn1cncc1[C@@](N)(c1ccc(Cl)cc1)c1ccc2c(c1)c(-c1cccc(Cl)c1)cc(=O)n2C [Tipifarnib, tipifarnib, reference compound] ; value = < 30 min

// field: half-life at 1 μM; key: [2H]C([2H])([2H])n1c(=O)cc2c3cc(ccc31)[C@@](N)(c1cncn1C)c1ccc(C#N)c(c1)OCc1cccc-2c1 [(S)-20] ; value = > 100 min

// field: half-life at 1 μM; key: Cn1cncc1[C@@]1(O)c2ccc(Cl)c(c2)OCCc2cccc(c2)-c2cc(=O)[nH]c3ccc1cc23 [(S)-25] ; value = < 30 min

// field: half-life at 1 μM; key: Cn1cncc1C1(O)c2ccc(Cl)c(c2)CCOc2cccc(c2)-c2cc(=O)n(C)c3ccc1cc23 (stereo not drawn) ; value = < 30 min

// field: half-life at 1 μM; key: Cn1cnnc1[C@@]1(N)c2ccc(C#N)c(c2)OCCc2cccc(c2)-c2cc(=O)n(C)c3ccc1cc23 [(S)-39] ; value = > 100 min

----------
Target System: Recombinant human farnesyl transferase (FTase) (Homo sapiens, UniProt P49356)
Assay Name: FTase fluorescence assay (farnesylation of dansyl-GCVLS peptide)
Test Context: recombinant human FTase 2.5 nM, Dansyl-GCVLS 85 nM, FPP 30 nM, 30° C., 50 minutes
pIC50: −log10 of the molar value.
Parameter Measured: pIC50

// field: pIC50; key: [2H]C([2H])([2H])n1c(=O)cc2c3cc(ccc31)[C@H](n1cnc(C)n1)c1ccc(Cl)c(c1)COc1cccc-2c1 [(S)-080] ; value = 7.00 to 8.00

// field: pIC50; key: Cn1cncc1[C@@]1(N)c2ccc(C#N)c(c2)CCc2cccc(c2)-c2cc(=O)n(C)c3ccc1cc23 [(R)-7] ; value = ≥ 8.00

// field: pIC50; key: [2H]C([2H])([2H])n1c(=O)cc2c3cc(ccc31)[C@](N)(c1cncn1C)c1ccc(C#N)c(c1)COc1cccc-2c1 (racemic) [(R)-56] ; value = < 7.00

// field: pIC50; key: Cn1cncc1[C@]1(N)c2ccc(C#N)c(c2)CCc2cccc(c2)-c2cc(=O)n(C)c3ccc1cc23 (racemic) [(S)-7] ; value = < 7.00

----------
Target System: Recombinant human farnesyl transferase (FTase) (Homo sapiens)
Assay Name: FTase fluorescence assay (farnesylation of dansyl-GCVLS peptide)
Test Context: recombinant human FTase 2.5 nM, Dansyl-GCVLS 85 nM, FPP 30 nM, 30° C., 50 minutes
pIC50: −log10 of the molar value.
Parameter Measured: pIC50

GET /values?item= COc1cc2c3cc(ccc3n1)C(O)(c1cncn1C)c1cnc(Cl)c(c1)COc1cccc-2c1 (stereo not shown) &system= Recombinant human farnesyl transferase (FTase) (Homo sapiens) returns pIC50: < 7.00

GET /values?item= Cn1cncc1C1(N)c2ccc(Br)c(c2)COc2cccc(c2)-c2nc(N)nc3ccc1cc23 (stereo not shown) &system= Recombinant human farnesyl transferase (FTase) (Homo sapiens) returns pIC50: ≥ 8.00

GET /values?item= COc1cc2c3cc(ccc3n1)C(O)(c1cncn1C)c1cnc(C#N)c(c1)COc1cccc-2c1 (stereo not shown) &system= Recombinant human farnesyl transferase (FTase) (Homo sapiens) returns pIC50: 7.00 to 8.00

GET /values?item= COc1cc2c3cc(ccc3n1)C(O)(c1nncn1C)c1ccc(Cl)c(c1)COc1cccc-2c1 (stereo not shown) &system= Recombinant human farnesyl transferase (FTase) (Homo sapiens) returns pIC50: < 7.00

GET /values?item= Cn1cncc1[C@]1(N)c2ccc(C#N)c(c2)COc2cccc(c2)-c2cc(=O)n(C3CC3)c3ccc1cc23 (racemic) [(R)-57] &system= Recombinant human farnesyl transferase (FTase) (Homo sapiens) returns pIC50: < 7.00

GET /values?item= COc1cc2c3cc(ccc3n1)C(O)(c1cncn1C)c1ccc(C#N)c(c1)COc1cccc-2c1 (stereo not shown) &system= Recombinant human farnesyl transferase (FTase) (Homo sapiens) returns pIC50: ≥ 8.00

GET /values?item= [2H]C([2H])([2H])n1c(=O)cc2c3cc(ccc31)[C@@](N)(c1cncn1C)c1ccc(C#N)c(c1)OCc1cccc-2c1 [(S)-20] &system= Recombinant human farnesyl transferase (FTase) (Homo sapiens) returns pIC50: ≥ 8.00

Measured values drawn from patent US12018011B2 for this set.
